target-under-test: hLPAR1 (human lysophosphatidic acid receptor 1) (Homo sapiens, UniProt Q92633)
Sequence (Q92633 whole entry): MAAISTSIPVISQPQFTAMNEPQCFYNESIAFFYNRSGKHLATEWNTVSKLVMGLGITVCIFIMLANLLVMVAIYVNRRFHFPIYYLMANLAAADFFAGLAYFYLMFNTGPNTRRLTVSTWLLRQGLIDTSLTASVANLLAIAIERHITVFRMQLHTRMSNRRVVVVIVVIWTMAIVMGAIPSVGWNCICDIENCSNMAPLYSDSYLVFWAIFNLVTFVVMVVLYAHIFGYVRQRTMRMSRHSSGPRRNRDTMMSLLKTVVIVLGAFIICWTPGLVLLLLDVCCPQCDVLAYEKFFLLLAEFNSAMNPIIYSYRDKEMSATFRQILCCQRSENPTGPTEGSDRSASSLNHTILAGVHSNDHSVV
test-name: FLIPR assay of intracellular calcium increase induced by activation of hLPAR1 expressed in CHO-K1 cells
Format: cell-based
recorded-conditions: CHO-K1 cells expressing hLPAR1, agonist oleoyl-L-α-lysophosphatidic acid 1 μM; read-out: LPAR1 IC50

>  <compound>
CN(CC1CCCC1)C(=O)OCc1c(-c2ccc(O[C@H]3CCC[C@H](C(=O)O)C3)c(F)n2)cnn1C (racemic)

>  <IC50>
< 50 nM

$$$$
>  <compound>
Cc1nc(-c2c(N)nn(C)c2COC(=O)N(C)C2CCCC2)ccc1O[C@H]1CCC[C@H](C(=O)O)C1 (racemic)

>  <IC50>
50 to 300 nM

$$$$
>  <compound>
Cc1nc(COC(=O)N(C)C2CCCC2)c(-c2ccc(O[C@H]3CCC[C@H](C(=O)O)C3)cc2)s1 (racemic)

>  <IC50>
300 to 10000 nM

$$$$
>  <compound>
Cc1nc(-c2csc(C)c2COC(=O)N(C)C2CCCC2)ccc1O[C@H]1CCC[C@H](C(=O)O)C1 (racemic)

>  <IC50>
< 50 nM

$$$$
>  <compound>
CN(Cc1ccccc1)C(=O)OCc1c(-c2ccc(O[C@H]3CCC[C@H](C(=O)O)C3)cc2)ncn1C (racemic)

>  <IC50>
300 to 10000 nM

$$$$
>  <compound>
Cc1nc(-c2cnn(C)c2COC(=O)N(C)CC2CCOC2)ccc1O[C@H]1CCC[C@H](C(=O)O)C1 (mixture of isomers)

>  <IC50>
300 to 10000 nM

$$$$
>  <compound>
Cc1onc(-c2ccc(O[C@H]3CCC[C@H](C(=O)O)C3)cn2)c1COC(=O)N(C)C1CCCC1 (racemic)

>  <IC50>
< 50 nM

$$$$
>  <compound>
Cc1nc(-c2cnn(C)c2COC(=O)N(C)C2COC2)ccc1O[C@H]1CCC[C@H](C(=O)O)C1 (racemic)

>  <IC50>
300 to 10000 nM

$$$$
>  <compound>
Cc1nc(-c2c(C#N)nn(C)c2COC(=O)N(C)C2CCCC2)ccc1O[C@@H]1CCC[C@@H](C(=O)O)C1 (racemic)

>  <IC50>
< 50 nM

$$$$
>  <compound>
CN(C(=O)OCc1c(-c2ccc(O[C@H]3CCC[C@H](C(=O)O)C3)c(F)n2)cnn1C)C1CCC1 (racemic)

>  <IC50>
50 to 300 nM

$$$$
>  <compound>
Cc1onc(-c2ccc(O[C@H]3CCC[C@H](C(=O)O)C3)c(C(F)(F)F)n2)c1COC(=O)N(C)C1CCCC1

>  <IC50>
< 50 nM

$$$$
>  <compound>
CN(Cc1ccccc1)C(=O)OCc1nc2c(O[C@H]3CCC[C@H](C(=O)O)C3)cccc2s1 (racemic)

>  <IC50>
300 to 10000 nM

$$$$
>  <compound>
Cc1snc(-c2ccc(O[C@H]3CCC[C@H](C(=O)O)C3)c(C(F)(F)F)n2)c1COC(=O)N(C)C1CCCC1

>  <IC50>
< 50 nM

$$$$
>  <compound>
CN(C(=O)OCc1cnncc1-c1ccc(O[C@H]2CCC[C@H](C(=O)O)C2)cc1)C1CCCC1 (racemic)

>  <IC50>
300 to 10000 nM

$$$$
